# Test system: HPV-16
# Protocol Summary: qPCR sensitivity against HPV-HNSCC tumor samples diluted among 10 ng normal human DNA
# Condition Notes: tumor DNA dilution, fraction of 32 samples
Reported Property: Sensitivity, 100 cells
One number for each entry.

Example entries and their recorded answers appear below.
* BR E1-6: HPV-16 E1 region primer/probe set, SEQ ID NO: 43-45 (nucleic acid, chemistry not given here) DNA 1: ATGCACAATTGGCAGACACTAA DNA 2: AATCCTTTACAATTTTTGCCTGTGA DNA 3: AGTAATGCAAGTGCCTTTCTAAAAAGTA | 0.875
* HR E5L2-4: primer/probe set for junction between E5 and L2, SEQ ID NO: 55-57 (same as SEQ ID NO: 4-6) (nucleic acid, chemistry not given here) DNA 1: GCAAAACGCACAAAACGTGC DNA 2: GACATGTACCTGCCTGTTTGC DNA 3: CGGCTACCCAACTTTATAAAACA | 0.938

BR E1-4: HPV-16 E1 region primer/probe set, SEQ ID NO: 37-39 (nucleic acid, chemistry not given here) DNA 1: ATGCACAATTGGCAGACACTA DNA 2: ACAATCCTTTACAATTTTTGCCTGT DNA 3: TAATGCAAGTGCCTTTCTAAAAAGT has a reported Sensitivity, 100 cells of 0.938
